# study-target: PKCβ2 (Homo sapiens, UniProt P05771)
# Sequence (P05771 1-673 isoform P05771-2): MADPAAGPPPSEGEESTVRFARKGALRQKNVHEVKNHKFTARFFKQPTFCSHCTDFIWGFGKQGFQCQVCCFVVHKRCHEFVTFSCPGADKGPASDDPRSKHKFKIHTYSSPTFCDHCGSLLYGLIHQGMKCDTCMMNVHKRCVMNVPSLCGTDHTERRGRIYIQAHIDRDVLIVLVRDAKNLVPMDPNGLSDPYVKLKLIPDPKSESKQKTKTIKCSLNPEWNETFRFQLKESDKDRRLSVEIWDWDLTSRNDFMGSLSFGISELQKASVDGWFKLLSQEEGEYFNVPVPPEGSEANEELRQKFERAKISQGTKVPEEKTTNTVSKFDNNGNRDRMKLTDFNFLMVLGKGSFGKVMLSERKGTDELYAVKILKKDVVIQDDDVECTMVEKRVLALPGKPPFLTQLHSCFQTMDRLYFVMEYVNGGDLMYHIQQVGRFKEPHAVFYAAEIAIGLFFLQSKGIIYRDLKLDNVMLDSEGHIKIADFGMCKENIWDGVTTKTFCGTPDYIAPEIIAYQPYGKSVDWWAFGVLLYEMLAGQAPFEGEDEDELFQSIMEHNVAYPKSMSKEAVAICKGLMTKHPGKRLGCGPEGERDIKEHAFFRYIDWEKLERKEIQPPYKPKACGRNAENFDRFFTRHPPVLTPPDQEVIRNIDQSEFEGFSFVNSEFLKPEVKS
# assay-procedure: In vitro PKC inhibition assay
# condition-summary: read-out: IC50 PKCβ2; purified human recombinant PKCβ2, 15 min, room temperature
Hi there, I'd appreciate the recorded IC50 for every entry that follows.
The reply should be a number in µM, with the unit left off.

Tell me the measured IC50 of CCCCCCCCCCCC[N+](C)(C)Cc1ccccc1 , please.
58.8

Data request, read-out IC50, for CCCCCCCCCCCCCC[N+](C)(C)Cc1ccccc1
14.1

Field request: IC50 | item: CCCCCCCCCCCCCCCCCC[N+](C)(C)Cc1ccccc1
39.3

* * *

# study-target: PKCα (Homo sapiens, UniProt P17252)
# assay-procedure: In vitro PKC inhibition assay
# condition-summary: read-out: IC50 PKCα; purified human recombinant PKCα, 15 min, room temperature
Provide the reported pIC50 of each item.
Lab note — pIC50 values are minus log10 of concentrations in M.

I'd like to know its pIC50. The compound in question is CCCCCCCCCCCCCCCCCC[N+](C)(C)Cc1ccccc1 [C18]
4.93

// pIC50 lookup, key: CCCCCCCCCCCCCC[N+](C)(C)Cc1ccccc1 [C14]
5.27

Look up pIC50 for this compound: CCCCCCCCCCCC[N+](C)(C)Cc1ccccc1 [C12]
4.65

* * *

# study-target: PKCδ (Homo sapiens)
# Sequence (Q05655 whole entry): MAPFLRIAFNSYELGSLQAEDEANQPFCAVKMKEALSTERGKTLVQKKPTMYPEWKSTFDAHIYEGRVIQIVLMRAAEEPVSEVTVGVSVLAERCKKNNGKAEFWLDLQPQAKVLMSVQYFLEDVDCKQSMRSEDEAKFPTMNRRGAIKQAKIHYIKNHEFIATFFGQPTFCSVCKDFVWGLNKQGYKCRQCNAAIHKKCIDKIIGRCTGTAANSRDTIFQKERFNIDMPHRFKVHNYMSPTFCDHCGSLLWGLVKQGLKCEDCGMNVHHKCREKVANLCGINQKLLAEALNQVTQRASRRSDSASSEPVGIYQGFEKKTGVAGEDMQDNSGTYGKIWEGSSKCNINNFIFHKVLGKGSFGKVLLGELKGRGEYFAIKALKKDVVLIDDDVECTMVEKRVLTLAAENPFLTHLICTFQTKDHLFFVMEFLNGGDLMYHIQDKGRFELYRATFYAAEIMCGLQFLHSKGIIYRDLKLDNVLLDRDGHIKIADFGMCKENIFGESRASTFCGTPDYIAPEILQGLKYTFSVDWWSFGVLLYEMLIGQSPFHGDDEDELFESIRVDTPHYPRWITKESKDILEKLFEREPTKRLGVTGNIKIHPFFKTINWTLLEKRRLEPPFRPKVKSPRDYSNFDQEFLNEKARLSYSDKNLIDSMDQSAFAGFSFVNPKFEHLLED
# assay-procedure: In vitro PKC inhibition assay
# condition-summary: read-out: IC50 PKCδ; purified human recombinant PKCδ, 30 min, room temperature
pIC50: −log10 of the molar value.
observable: pIC50

For the compound shown here, CCCCCCCCCC[N+](C)(C)Cc1ccccc1 [C10] , give the reported pIC50.
< 3.89

// query pIC50 value for entry CCCCCCCCCCCC[N+](C)(C)Cc1ccccc1 [C12]
< 3.93

What does the record list as pIC50 for CCCCCCCCCCCCCC[N+](C)(C)Cc1ccccc1 [C14] ?
< 3.96

* * *

Provide the recorded pIC50 for the entries that follow.
# study-target: PKCβ1 (Homo sapiens)
# assay-procedure: In vitro PKC inhibition assay
# condition-summary: read-out: IC50 PKCβ1; purified human recombinant PKCβ1, 30 min, room temperature
The scale used: pIC50 is minus the common logarithm of the concentration in molar units.

// lookup pIC50 for CCCCCCCCCCCCCCCCCC[N+](C)(C)Cc1ccccc1 [C18]
4.13

Name the reported pIC50 value associated with the compound CCCCCCCCCCCCCC[N+](C)(C)Cc1ccccc1 [C14]
5.00

Param item = CCCCCCCCCCCC[N+](C)(C)Cc1ccccc1 [C12] ; retrieve measured pIC50.
4.23

* * *

# study-target: PKCβ2 (Homo sapiens)
# assay-procedure: In vitro PKC inhibition assay
# condition-summary: read-out: IC50 PKCβ2; purified human recombinant PKCβ2, 15 min, room temperature
observable: IC50

So what's the measured IC50 for this one? CCCCCCCC[N+](C)(C)Cc1ccccc1 [C8]
> 101 µM

Recorded IC50 of CCCCCCCCCC[N+](C)(C)Cc1ccccc1 [C10] , please.
> 101 µM

IC50 for CCCCCCCCCCCCCCCC[N+](C)(C)Cc1ccccc1 [C16 (CKC), cetalkonium chloride] ?
> 101 µM

* * *

# study-target: PKCβ1 (Homo sapiens, UniProt P05771)
# Sequence (P05771 whole entry): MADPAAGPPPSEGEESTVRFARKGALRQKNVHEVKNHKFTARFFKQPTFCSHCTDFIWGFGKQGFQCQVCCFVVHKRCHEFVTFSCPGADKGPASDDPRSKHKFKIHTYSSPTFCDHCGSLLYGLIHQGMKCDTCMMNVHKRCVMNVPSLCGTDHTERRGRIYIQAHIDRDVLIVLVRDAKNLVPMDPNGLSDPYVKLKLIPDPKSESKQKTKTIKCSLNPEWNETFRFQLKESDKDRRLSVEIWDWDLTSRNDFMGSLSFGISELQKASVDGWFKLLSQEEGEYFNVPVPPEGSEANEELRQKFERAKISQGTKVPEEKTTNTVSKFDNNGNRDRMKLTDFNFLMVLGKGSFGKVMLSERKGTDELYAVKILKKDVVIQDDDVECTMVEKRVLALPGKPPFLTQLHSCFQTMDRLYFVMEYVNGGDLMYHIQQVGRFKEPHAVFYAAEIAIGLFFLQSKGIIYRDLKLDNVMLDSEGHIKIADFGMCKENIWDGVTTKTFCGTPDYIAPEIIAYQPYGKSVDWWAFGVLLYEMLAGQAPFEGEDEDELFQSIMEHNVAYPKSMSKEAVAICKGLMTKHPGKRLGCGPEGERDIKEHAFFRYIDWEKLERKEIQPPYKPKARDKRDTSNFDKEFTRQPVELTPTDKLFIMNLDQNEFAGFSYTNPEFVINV
# assay-procedure: In vitro PKC inhibition assay
# condition-summary: read-out: IC50 PKCβ1; purified human recombinant PKCβ1, 30 min, room temperature
pIC50: −log10 of the molar value.
observable: pIC50

Entry under review: CCCCCCCC[N+](C)(C)Cc1ccccc1 . Reported pIC50?
< 4.00

Fill in the blank: the reported pIC50 of CCCCCCCCCCCCCCCC[N+](C)(C)Cc1ccccc1 [C16 (CKC), cetalkonium chloride] is ____.
< 4.00

Sample CCCCCCCCCC[N+](C)(C)Cc1ccccc1 — what was its pIC50?
< 4.00
